B1: library; a variant is named by its letters at N, in order (parent)
chain: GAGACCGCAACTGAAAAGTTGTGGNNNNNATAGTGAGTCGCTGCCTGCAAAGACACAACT

Variants of: B1
Assay: ligation selection enrichment (abundance after / before one-round selection) (fold); higher = more template-directed ligation activity
Conditions: with T7Psub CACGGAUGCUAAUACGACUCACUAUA; MgCl2 25 mM; 42 °C; 4 h; pH 8.5
Kindly return condition met if reported ligation selection enrichment is no lower than 0.3; return condition not met if it is lower.

Answered cases to consult:
Residue Codes | Assigned Category
GAGACCGCAACTGAAAAGTTGTGGCCCATATAGTGAGTCGCTGCCTGCAAAGACACAACT | condition met
GAGACCGCAACTGAAAAGTTGTGGATGATATAGTGAGTCGCTGCCTGCAAAGACACAACT | condition met
GAGACCGCAACTGAAAAGTTGTGGGCACTATAGTGAGTCGCTGCCTGCAAAGACACAACT | condition met

Request: Does `GAGACCGCAACTGAAAAGTTGTGGTTTTGATAGTGAGTCGCTGCCTGCAAAGACACAACT` have a reported ligation selection enrichment of at least 0.3?
Result: condition met

Request: Kindly determine if ligation selection enrichment recorded for `GAGACCGCAACTGAAAAGTTGTGGAGTAAATAGTGAGTCGCTGCCTGCAAAGACACAACT` is above or exactly 0.3.
Result: condition met

Request: Decide: is the reported value of ligation selection enrichment for `GAGACCGCAACTGAAAAGTTGTGGTGTGGATAGTGAGTCGCTGCCTGCAAAGACACAACT` equal to or greater than 0.3?
Result: condition not met

Request: Does the variant `GAGACCGCAACTGAAAAGTTGTGGAATTCATAGTGAGTCGCTGCCTGCAAAGACACAACT` have recorded ligation selection enrichment that is 0.3 or more?
Result: condition not met

Request: Please check the record `GAGACCGCAACTGAAAAGTTGTGGGTCCAATAGTGAGTCGCTGCCTGCAAAGACACAACT` and state if its ligation selection enrichment is at or above 0.3.
Result: condition not met

Request: Decide: ligation selection enrichment of `GAGACCGCAACTGAAAAGTTGTGGCTGATATAGTGAGTCGCTGCCTGCAAAGACACAACT` >= 0.3?
Result: condition met

Request: Check this variant for ligation selection enrichment at or above 0.3: `GAGACCGCAACTGAAAAGTTGTGGCTCCAATAGTGAGTCGCTGCCTGCAAAGACACAACT`
Result: condition not met

Request: ligation selection enrichment >= 0.3 for `GAGACCGCAACTGAAAAGTTGTGGTTGCGATAGTGAGTCGCTGCCTGCAAAGACACAACT` ?
Result: condition met

Request: Has `GAGACCGCAACTGAAAAGTTGTGGCTAGAATAGTGAGTCGCTGCCTGCAAAGACACAACT` a recorded ligation selection enrichment greater than or equal to 0.3?
Result: condition not met

Request: Can `GAGACCGCAACTGAAAAGTTGTGGTTAATATAGTGAGTCGCTGCCTGCAAAGACACAACT` be said to have ligation selection enrichment at or above 0.3?
Result: condition met

Request: Please indicate if the recorded ligation selection enrichment for `GAGACCGCAACTGAAAAGTTGTGGTATCCATAGTGAGTCGCTGCCTGCAAAGACACAACT` meets or exceeds 0.3.
Result: condition met

Request: Dear colleague, could you confirm whether `GAGACCGCAACTGAAAAGTTGTGGAATACATAGTGAGTCGCTGCCTGCAAAGACACAACT` has ligation selection enrichment at or above 0.3?
Result: condition not met

Request: Quick check: does `GAGACCGCAACTGAAAAGTTGTGGTCCCTATAGTGAGTCGCTGCCTGCAAAGACACAACT` have ligation selection enrichment greater than or equal to 0.3?
Result: condition met

Request: Answer whether ligation selection enrichment of `GAGACCGCAACTGAAAAGTTGTGGGACGTATAGTGAGTCGCTGCCTGCAAAGACACAACT` is greater than or equal to 0.3.
Result: condition not met

Attribution: the supplement of paper PMC10219994
